- assay.comment: recombinant UMI read abundance after kanamycin selection (control-corrected) (log10(CPM+1)); higher = more efficient recombination; extreme values may be limits of the assay; sequences stand for … in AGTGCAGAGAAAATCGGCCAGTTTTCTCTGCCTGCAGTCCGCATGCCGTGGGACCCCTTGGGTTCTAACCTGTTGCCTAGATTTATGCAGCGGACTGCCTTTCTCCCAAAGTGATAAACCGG…AGGTTGGTTTCACT; site = the 11-nt donor;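 further: IS621 bridge recombinase in Escherichia coli cells against a fixed T5 target plasmid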
test.readout: recombinant UMI read abundance (log10)

{"sequence.text": "GGCCACCCATGGACCGGTTTTCCCGGTAATCCGTATTTGTC (site GGCCACCCTCA)", "recorded.number": 0.0127}
{"sequence.text": "GCCACGCCATGGACCGGTTTTCCCGGTAATCCGTATTTGTT (site GCCACGCCTTA)", "recorded.number": 0.00385}
{"sequence.text": "ATAAGGCCATGGACCGGTTTTCCCGGTAATCCGTATTTGAC (site ATAAGGGCTGT)", "recorded.number": 0}
{"sequence.text": "ACCAGAACATGGACCGGTTTTCCCGGTAATCCGTATTTGAG (site ACCAGAACTCT)", "recorded.number": 2.19}
{"sequence.text": "GGTACGTCATGGACCGGTTTTCCCGGTAATCCGTATTTGTT (site GTTACGTCTAA)", "recorded.number": 0.0263}
{"sequence.text": "CGTATAACATGGACCGGTTTTCCCGGTAATCCGTATTTGAT (site CGTATAACTAT)", "recorded.number": 0.94}
{"sequence.text": "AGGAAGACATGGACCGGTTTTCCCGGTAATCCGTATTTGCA (site AGGCAGACTTC)", "recorded.number": 0.0244}
{"sequence.text": "CATAACGCATGGACCGGTTTTCCCGGTAATCCGTATTTGTG (site TGAGGGCCTGC)", "recorded.number": 0}
{"sequence.text": "GCCAAAACATGGACCGGTTTTCCCGGTAATCCGTATTTGCT (site GCAAAAACTAG)", "recorded.number": 1.08}
{"sequence.text": "GTGGAGGCATGGACCGGTTTTCCCGGTAATCCGTATTTGAG (site GTGGAGGCTCA)", "recorded.number": 0.00393}
{"sequence.text": "CGGGAGTCATGGACCGGTTTTCCCGGTAATCCGTATTTGTC (site CGGGAGTCTGT)", "recorded.number": 1.9}
{"sequence.text": "ACCTACGCATGGACCGGTTTTCCCGGTAATCCGTATTTGAA (site ACCTACGCTTT)", "recorded.number": 1.09}
{"sequence.text": "GCTTGGACATGGACCGGTTTTCCCGGTAATCCGTATTTGGA (site GCTTGGACTTC)", "recorded.number": 0.32}
{"sequence.text": "AGGAGCACATGGACCGGTTTTCCCGGTAATCCGTATTTGCA (site AGGAGCACTTG)", "recorded.number": 2.37}
{"sequence.text": "CACATATCATGGACCGGTTTTCCCGGTAATCCGTATTTGTC (site CTCATATCTGA)", "recorded.number": 0}
{"sequence.text": "AGAAGGGCATGGACCGGTTTTCCCGGTAATCCGTATTTGCT (site AGAACGGCTAG)", "recorded.number": 0.0144}
{"sequence.text": "CAGTCGACATGGACCGGTTTTCCCGGTAATCCGTATTTGGG (site CACTCGACTCC)", "recorded.number": 0.0212}
{"sequence.text": "TAGGCTTCATGGACCGGTTTTCCCGGTAATCCGTATTTGGT (site TAGACTTCTAC)", "recorded.number": 0.0923}

Reference for the values: the supplement of paper PMC11208160
